System name: Inadl_5, Q8NI35
Sequence (Q8NI35 673-780): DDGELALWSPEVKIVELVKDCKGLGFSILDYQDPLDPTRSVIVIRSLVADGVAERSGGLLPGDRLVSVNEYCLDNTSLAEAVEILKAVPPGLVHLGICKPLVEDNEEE
Procedure text: holdup assay
Set-up: key: below the threshold = too weak to quantify, mostly under pKd 3.1 to 4
Settings: plain residues with an end cap or a label only (N-terminal biotin on a linker: ttds)
Attribute measured: pKd

[
  {
    "Binder": "NDPAWDETNL [ARHGEF7, Q14155;Q14155-1]",
    "Endpoint result": "below the threshold"
  },
  {
    "Binder": "EVVHTPETSV [SLC16A3, O15427]",
    "Endpoint result": "below the threshold"
  },
  {
    "Binder": "VDFPPKESSL [ACVR2A, P27037]",
    "Endpoint result": "below the threshold"
  },
  {
    "Binder": "RLPKIKETTV [FRMPD4, Q14CM0]",
    "Endpoint result": "below the threshold"
  },
  {
    "Binder": "SKPTRRETEV [HPV35-E6, P27228]",
    "Endpoint result": "below the threshold"
  },
  {
    "Binder": "QRQARSETLV [HPV59-E6, Q81964]",
    "Endpoint result": 3.9
  },
  {
    "Binder": "FHPLGADSQV [SLC2A1, P11166]",
    "Endpoint result": "below the threshold"
  },
  {
    "Binder": "RLQRRRETQV [HPV18-E6, P06463]",
    "Endpoint result": 3.52
  },
  {
    "Binder": "PVRVCEETSL [OTULIN, Q96BN8]",
    "Endpoint result": 3.54
  }
]

Values compiled from paper PMC9482650.
